# tgt: human recombinant LPA1 Lysophospholipid receptor (Homo sapiens, UniProt Q92633)
# Sequence (Q92633 whole entry): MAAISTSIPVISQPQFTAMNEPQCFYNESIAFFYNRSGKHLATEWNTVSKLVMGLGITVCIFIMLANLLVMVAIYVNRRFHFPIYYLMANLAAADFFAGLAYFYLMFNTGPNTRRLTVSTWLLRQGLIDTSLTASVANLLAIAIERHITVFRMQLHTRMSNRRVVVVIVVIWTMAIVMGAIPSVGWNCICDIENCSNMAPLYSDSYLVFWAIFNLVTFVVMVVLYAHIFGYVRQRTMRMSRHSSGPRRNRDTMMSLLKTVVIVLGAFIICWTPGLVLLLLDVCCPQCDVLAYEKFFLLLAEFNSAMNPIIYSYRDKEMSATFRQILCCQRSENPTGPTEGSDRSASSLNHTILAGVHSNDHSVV
# method: Calcium flux assay using FLIPR, LPA1 antagonist activity
# particulars: ChemiScreen Calcium-optimized stable cell line; antagonist mode, inhibition of agonist-induced calcium flux
pIC50: −log10 of the molar value.
So I've got a bunch of compounds here, and I need their pIC50 values.

Reported pIC50 for human recombinant LPA1 Lysophospholipid receptor (Homo sapiens, UniProt Q92633), given "C[C@@H](OC(=O)Nc1nncn1-c1ccc(-c2ccc(C3(C(=O)O)CC3)cc2)cc1)c1ccccc1" ?
< 4.52

State its pIC50 on human recombinant LPA1 Lysophospholipid receptor (Homo sapiens, UniProt Q92633): "Cc1nnn(-c2ccc(-c3ccccc3)cc2)c1NC(=O)O[C@H](C)c1ccccc1"
< 4.52

Give human recombinant LPA1 Lysophospholipid receptor (Homo sapiens, UniProt Q92633) pIC50 for "C[C@@H](OC(=O)Nc1cnnn1-c1ccc(-c2ccc(CC(=O)O)cc2)cc1)c1ccccc1"
< 4.52

Reported pIC50 for human recombinant LPA1 Lysophospholipid receptor (Homo sapiens, UniProt Q92633), given "Cc1nnn(-c2ccc(-c3ccc(CC(=O)O)cc3)cc2)c1NC(=O)O[C@H](C)c1ccccc1" ?
< 4.52

Which pIC50 is reported with human recombinant LPA1 Lysophospholipid receptor (Homo sapiens, UniProt Q92633) for this entry: "Cc1c(NC(=O)O[C@H](C)c2ccccc2)nnn1-c1ccc(-c2ccc(CC(=O)O)cc2)cc1" ?
< 4.52

Recorded pIC50 for "Cc1nnn(-c2ccc(-c3cccc(C4(C(=O)O)CC4)c3)cc2)c1NC(=O)O[C@H](C)c1ccccc1" with human recombinant LPA1 Lysophospholipid receptor (Homo sapiens, UniProt Q92633), please?
< 4.52

Test system human recombinant LPA1 Lysophospholipid receptor (Homo sapiens, UniProt Q92633); read-out pIC50; what value for "Cc1nnn(-c2ccc(-c3ccc(C#N)cc3)cc2)c1NC(=O)O[C@H](C)c1ccccc1" ?
< 4.52
